- STUDY_SYSTEM: T1, KdpE-E216A (Escherichia coli, UniProt P21866 1-225, E216A)
- T1 sequence: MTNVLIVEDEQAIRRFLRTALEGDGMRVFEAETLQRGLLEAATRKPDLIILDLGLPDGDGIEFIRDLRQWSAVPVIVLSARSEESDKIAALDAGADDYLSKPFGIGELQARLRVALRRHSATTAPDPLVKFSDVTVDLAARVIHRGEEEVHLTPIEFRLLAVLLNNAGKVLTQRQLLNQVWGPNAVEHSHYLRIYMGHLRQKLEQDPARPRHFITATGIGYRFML
- MEASUREMENT_DESCRIPTION: fluorescence anisotropy
pKd: −log10 of the molar value.

BINDER: 24-bp KdpE site DNA, TAMRA (anisotropy) (dsDNA) DNA 1: CATTTTTATACTTTTTTTACACCC DNA 2: GGGTGTAAAAAAAGTATAAAAATG
pKd: 8.46
